# Measurement target: Kras and SOS1 (biotin-tagged human Kras loaded with GDP, His-tagged human SOS1) (Homo sapiens, UniProt P01116, G12D)
# Construct: made in house; host or cells: E. coli (stated for Kras only)
# Sequence (P01116 1-188 isoform P01116-2 G12D): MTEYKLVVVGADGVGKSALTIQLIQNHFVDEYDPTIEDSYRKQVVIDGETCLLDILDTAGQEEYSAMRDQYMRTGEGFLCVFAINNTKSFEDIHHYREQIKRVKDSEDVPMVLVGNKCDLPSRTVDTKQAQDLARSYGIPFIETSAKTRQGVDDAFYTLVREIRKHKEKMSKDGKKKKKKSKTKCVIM
# Protocol notes: Protein-protein interaction inhibition between Kras and SOS1 (KrasGl2D-SOS PPI) using AlphaScreen
# Format: binding
# Recorded conditions: AlphaScreen; biotin-tagged human Kras loaded with GDP, His-tagged human SOS1; read-out: KRAS G12D-SOS PPI IC50
Non-standard residues stand in square brackets, D forms with d. Residues, ends and D or L forms follow the SMILES beside them. hPhe(3-Cl-4-CF3) = N[C@@H](CCc1ccc(C(F)(F)F)c(Cl)c1)C(=O)O; NMePhe(4-Me) = CN[C@@H](Cc1ccc(C)cc1)C(=O)O; NMeGly(cPent) = CN[C@H](C(=O)O)C1CCCC1; NMeL = CN[C@@H](CC(C)C)C(=O)O; d(β3hA) = C[C@@H](N)CC(=O)O; Ac5c = NC1(C(=O)O)CCCC1; Sar = CNCC(=O)O
Measure name: IC50 (µM)
Supply the numeric figure in µM, leaving out any unit text.

QUERY: Suppose we examine the compound CC[C@H](C)[C@@H]1NC(=O)[C@H](CC(C)C)N(C)C(=O)C[C@@H](C)NC(=O)[C@H](C2CCCC2)N(C)C(=O)C2(CCCC2)NC(=O)[C@@H]2CCCN2C(=O)[C@H](CCc2ccc(C(F)(F)F)c(Cl)c2)NC(=O)[C@H]2CCCN2C(=O)[C@H](Cc2ccc(C)cc2)N(C)C(=O)CN(C)C(=O)CN(C)C1=O [Compound 1487] (cyclo([Ac5c][NMeGly(cPent)][d(β3hA)][NMeL]I[Sar][Sar][NMePhe(4-Me)][dP][hPhe(3-Cl-4-CF3)]P)) ; what IC50 value has been reported?
RESULT: 0.34
